Target: T1, human IL-18BP (interleukin-18 binding protein, isoform A) (human, UniProt O95998 31-194)
T1 construct: cell assays used Sino Biological 10357-H08H; PBMC assay 1 relies on endogenous IL-18BP; UniProt number is printed as 095998; also called hIL-18BP
T1 sequence: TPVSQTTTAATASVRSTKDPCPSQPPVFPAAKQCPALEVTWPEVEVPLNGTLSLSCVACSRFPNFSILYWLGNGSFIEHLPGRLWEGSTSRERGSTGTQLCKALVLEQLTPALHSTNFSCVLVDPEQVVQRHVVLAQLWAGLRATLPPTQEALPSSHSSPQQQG
Assay: BLI (Octet), mAb on AHC biosensor
MEASURED METRIC: pKd
Give only the number. pKd is defined as minus log10 of concentration in molar units.

Prompt: Recorded pKd for SA301a (antibody, human IgG1, V domains shown, humanized; human IgG1 (suffix a), kappa; also called humanized SA44a) VH: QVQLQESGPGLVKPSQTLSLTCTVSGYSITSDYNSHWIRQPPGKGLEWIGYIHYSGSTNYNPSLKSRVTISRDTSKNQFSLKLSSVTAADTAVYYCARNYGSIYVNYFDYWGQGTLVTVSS VL: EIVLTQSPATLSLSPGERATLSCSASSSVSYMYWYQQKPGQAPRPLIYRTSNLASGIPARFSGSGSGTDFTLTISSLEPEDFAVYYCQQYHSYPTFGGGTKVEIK , please?
Response: 9.66

Prompt: Recorded pKd for SA326a (antibody, human IgG1, V domains shown, humanized; human IgG1 (suffix a), kappa) VH: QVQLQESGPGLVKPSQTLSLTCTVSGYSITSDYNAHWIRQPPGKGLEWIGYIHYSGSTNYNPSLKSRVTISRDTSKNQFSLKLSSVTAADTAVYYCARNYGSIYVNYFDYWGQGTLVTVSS VL: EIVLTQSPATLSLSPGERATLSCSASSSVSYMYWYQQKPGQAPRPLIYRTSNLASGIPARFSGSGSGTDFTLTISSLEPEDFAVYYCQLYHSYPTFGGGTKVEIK , please?
Response: 9.89

Prompt: Recorded pKd for SA316a (antibody, human IgG1, V domains shown, humanized; human IgG1 (suffix a), kappa) VH: QVQLQESGPGLVKPSQTLSLTCTVSGYSITSDYNAHWIRQPPGKGLEWIGYIHYSGSTYYNPSLKSRVTISRDTSKNQFSLKLSSVTAADTAVYYCARNYGSIYVNYFDYWGQGTLVTVSS VL: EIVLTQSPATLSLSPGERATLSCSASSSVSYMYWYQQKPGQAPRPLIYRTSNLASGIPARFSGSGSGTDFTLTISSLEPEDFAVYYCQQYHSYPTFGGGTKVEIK , please?
Response: 9.64

Prompt: Recorded pKd for SA307a (antibody, human IgG1, V domains shown, humanized; human IgG1 (suffix a), kappa) VH: QVQLQESGPGLVKPSQTLSLTCTVSGYSITQDYNAHWIRQPPGKGLEWIGYIHYSGSTNYNPSLKSRVTISRDTSKNQFSLKLSSVTAADTAVYYCARNYGSIYVNYFDYWGQGTLVTVSS VL: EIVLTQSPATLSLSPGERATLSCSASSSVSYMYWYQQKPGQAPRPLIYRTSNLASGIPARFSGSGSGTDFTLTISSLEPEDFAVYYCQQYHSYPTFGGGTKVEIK , please?
Response: 10.27

Shift focus to the following entry.
Prompt: Recorded pKd for SA329a (antibody, human IgG1, V domains shown, humanized; human IgG1 (suffix a), kappa) VH: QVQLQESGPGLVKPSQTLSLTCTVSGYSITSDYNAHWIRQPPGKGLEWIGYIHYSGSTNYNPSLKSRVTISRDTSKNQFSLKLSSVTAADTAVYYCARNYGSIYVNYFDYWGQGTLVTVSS VL: EIVLTQSPATLSLSPGERATLSCSASSSVSYMYWYQQKPGQAPRPLIYRTSNLASGIPARFSGSGSGTDFTLTISSLEPEDFAVYYCQQYHSYPKFGGGTKVEIK , please?
Response: 9.97

The reported measurements were obtained from patent US20250368745A1.
